- Subject Of Test: UniProt P41143
- Sequence (P41143 whole entry): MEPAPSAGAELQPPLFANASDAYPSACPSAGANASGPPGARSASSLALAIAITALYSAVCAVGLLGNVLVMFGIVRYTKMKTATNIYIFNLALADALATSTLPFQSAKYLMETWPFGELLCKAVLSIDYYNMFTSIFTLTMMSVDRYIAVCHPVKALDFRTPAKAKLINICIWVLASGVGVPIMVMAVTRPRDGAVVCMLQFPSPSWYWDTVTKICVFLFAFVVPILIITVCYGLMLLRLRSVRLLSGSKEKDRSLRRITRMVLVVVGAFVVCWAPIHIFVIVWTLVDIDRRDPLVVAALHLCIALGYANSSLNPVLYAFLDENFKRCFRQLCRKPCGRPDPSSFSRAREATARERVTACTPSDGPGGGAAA
- Protocol Details: DOR calcium mobilization agonist/antagonist screen (CHO-RD-HGA16 cells)
- Assay type: cell-based
- Parameters: host or cells: CHO-RD-HGA16
- Condition Summary: CHO-RD-HGA16; agonist screen, single concentration; control agonist DPDPE

# Compound, Emax (%)
data = [
    ("C=C1c2[nH]c3ccccc3c2CN2CC[C@@H]1/C(=C\\C)C2 [WW-16]", 0),
    ("CCC1CN2CC[C@H]1C(=O)c1[nH]c3ccccc3c1C2 (stereo partly drawn) [WW-15]", 0),
    ("CCOC(=O)C1CCN(Cc2c[nH]c3ccccc23)CC1 [WW-17]", 0),
    ("C/C=C1/CN2CC[C@H]1C(=O)c1[nH]c3ccc(Cl)cc3c1C2 [WW-2]", 0),
    ("C/C=C1/CN(CCCCC)CC[C@H]1C(=O)c1cc2ccccc2[nH]1 [WW-12]", 6),
    ("C/C=C1/CN(CCc2ccc(F)cc2)CC[C@H]1C(=O)c1cc2ccccc2[nH]1 [WW-9]", 0),
]

###

Recorded Emax for the following molecules
- Subject Of Test: MOR (Homo sapiens, UniProt P35372)
- Sequence (P35372 whole entry): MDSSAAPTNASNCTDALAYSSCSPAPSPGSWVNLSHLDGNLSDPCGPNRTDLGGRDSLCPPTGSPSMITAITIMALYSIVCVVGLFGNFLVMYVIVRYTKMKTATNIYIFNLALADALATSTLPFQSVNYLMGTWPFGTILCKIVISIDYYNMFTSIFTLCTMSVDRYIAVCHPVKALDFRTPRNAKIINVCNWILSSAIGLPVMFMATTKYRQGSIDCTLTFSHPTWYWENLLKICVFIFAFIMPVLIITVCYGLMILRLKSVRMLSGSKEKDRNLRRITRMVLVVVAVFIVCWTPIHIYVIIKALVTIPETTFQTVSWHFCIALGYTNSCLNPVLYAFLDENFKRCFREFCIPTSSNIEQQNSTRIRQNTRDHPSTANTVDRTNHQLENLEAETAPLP
- Protocol Details: MOR calcium mobilization agonist/antagonist screen (CHO-RD-HGA16 cells)
- Assay type: cell-based
- Design: host or cells: CHO-RD-HGA16
- Condition Summary: CHO-RD-HGA16; agonist screen, single concentration; control agonist DAMGO
Assay Metric: Emax (%)

# Molecule, Assay Metric, Unit Of Measure, Reported Result
records = [
    ("CCOC(=O)C1CCN(Cc2c[nH]c3ccccc23)CC1", "Emax", "%", 1),
    ("CCC1CN2CC[C@H]1C(=O)c1[nH]c3ccccc3c1C2 (some centres unmarked)", "Emax", "%", 0),
    ("C/C=C1/CN2CC[C@H]1C(=O)c1[nH]c3ccc(Cl)cc3c1C2", "Emax", "%", 0),
    ("C/C=C1/CN(CCCCC)CC[C@H]1C(=O)c1cc2ccccc2[nH]1", "Emax", "%", 11),
    ("O=C(c1cc2ccccc2[nH]1)C1CCN(Cc2ccccc2)CC1", "Emax", "%", 0),
]

###

Recorded KOR Calcium % U69, 593 Inhibition for the following compounds
- Subject Of Test: KOR (Homo sapiens)
- Sequence (P41145 whole entry): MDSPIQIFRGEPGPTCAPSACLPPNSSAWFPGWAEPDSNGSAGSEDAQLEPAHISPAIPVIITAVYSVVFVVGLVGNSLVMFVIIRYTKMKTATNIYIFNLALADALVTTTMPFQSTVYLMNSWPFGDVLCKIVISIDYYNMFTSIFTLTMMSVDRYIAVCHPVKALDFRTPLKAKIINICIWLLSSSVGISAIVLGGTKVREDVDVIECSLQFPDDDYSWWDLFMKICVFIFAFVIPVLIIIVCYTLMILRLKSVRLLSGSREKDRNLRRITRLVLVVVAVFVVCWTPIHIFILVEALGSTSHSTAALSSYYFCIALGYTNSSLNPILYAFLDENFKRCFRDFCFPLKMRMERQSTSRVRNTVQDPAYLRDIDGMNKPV
- Protocol Details: KOR calcium mobilization agonist/antagonist screen (CHO-RD-HGA16 cells)
- Format: cell-based
- Set-up: host or cells: CHO-RD-HGA16
- Condition Summary: antagonist screen, single concentration; vs EC60 of U69,593
- Method: Compounds were evaluated for kappa (KOR), mu (MOR), and delta (DOR) opioid receptor agonist and antagonist activity in three individual cell lines overexpressing Gαq16 (CHO-RD-HGA16, Molecular Devices) and the human kappa, mu, and delta opioid receptors, respectively. […] After the dye-loading incubation period, pretreatment solution was added to each well (25 μL of 9% DMSO/assay buffer) and, after 15 min, the plate was read with a FlexStation II (Molecular Devices). […]
Marks after values point to notes of the source that are not given here.

# Compound, KOR Calcium % U69, 593 Inhibition
rows = [
    ("C/C=C1/CN2CC[C@H]1C(=O)c1[nH]c3ccc(Cl)cc3c1C2 [WW-2]", "22%"),
    ("CCOC(=O)c1[nH]c2ccccc2c1CN1CCC(C(=O)OC)CC1 [WW-6]", "22%"),
    ("C/C=C1/CN2CC[C@H]1C(=O)c1[nH]c3cc(F)ccc3c1C2 [WW-3]", "14%"),
    ("C/C=C1/CN(CCC)CC[C@H]1C(=O)c1cc2ccccc2[nH]1 [WW-14]", "6%"),
    ("C/C=C1/CN(CCc2ccc(F)cc2)CC[C@H]1C(=O)c1cc2ccccc2[nH]1 [WW-9]", "23%"),
    ("C/C=C1/CN(CC(C)C)CC[C@H]1C(=O)c1cc2ccccc2[nH]1 [WW-10]", "8%"),
    ("C/C=C1/CN2CC[C@H]1C(=O)c1[nH]c3ccccc3c1C2 [WW-1]", "11%"),
    ("C/C=C1/CN(CCCCC)CC[C@H]1C(=O)c1cc2ccccc2[nH]1 [WW-12]", "69** %"),
    ("O=C(c1cc2ccccc2[nH]1)C1CCN(Cc2ccccc2)CC1 [WW-18]", "8%"),
    ("C/C=C1/CN2CC[C@H]1C(=O)c1[nH]c3ccc(OC)cc3c1C2 [WW-5]", "17%"),
    ("C/C=C1/CN(Cc2ccc(OC)cc2)CC[C@H]1C(=O)c1cc2ccccc2[nH]1 [WW-7]", "38%"),
    ("C/C=C1/CN2CC[C@H]1C(=O)c1[nH]c3ccc(F)cc3c1C2 [WW-4]", "14%"),
    ("CCC1CN2CC[C@H]1C(=O)c1[nH]c3ccccc3c1C2 (stereo partly shown) [WW-15]", "18%"),
    ("C=C1c2[nH]c3ccccc3c2CN2CC[C@@H]1/C(=C\\C)C2 [WW-16]", "23%"),
    ("C/C=C1/CNCC[C@H]1C(=O)c1cc2ccccc2[nH]1 [WW-8]", "4%"),
    ("CCOC(=O)C1CCN(Cc2c[nH]c3ccccc23)CC1 [WW-17]", "5%"),
]
